Let's look at some compounds and their measured IC50.
- Tested on: CS242 fibroblast
- Experiment description: CS242 fibroblast cell viability assay, CellTiter-Glo, 72 h
- Assay type: cell-based, human
- Experimental parameters: Homo sapiens, Fibroblast, Table 2 hit confirmation, top 7.5 μM, mean ± SD (n = 3)
Structures can show the parent of a compound that is named as a salt.

Compound | Target desc | IC50, nM
CC(=O)O[C@H]1C[C@H](O[C@H]2[C@@H](O)C[C@H](O[C@H]3[C@@H](O)C[C@H](O[C@H]4CC[C@@]5(C)[C@H](CC[C@@H]6[C@@H]5C[C@@H](O)[C@]5(C)[C@@H](C7=CC(=O)OC7)CC[C@]65O)C4)O[C@@H]3C)O[C@@H]2C)O[C@H](C)[C@H]1O[C@@H]1O[C@H](CO)[C@@H](O)[C@H](O)[C@H]1O [Lanatoside c] | CS242 fibroblast | 196
CC(=O)O[C@H]1CC[C@@]2(C)[C@H](CC[C@@H]3[C@@H]2CC[C@]2(C)[C@@H](C4=CC(=O)OC4)[C@@H](OC(C)=O)C[C@]32O)C1 [Gitoxigenin diacetate] | CS242 fibroblast | 196
COc1cccc2c1C(=O)c1c(O)c3c(c(O)c1C2=O)C[C@@](O)(C(=O)CO)C[C@@H]3O[C@H]1C[C@H](N)[C@@H](O)[C@H](C)O1 [Epirubicin hydrochloride] | CS242 fibroblast | 128
C[C@]12CC[C@H]3[C@@H](CC[C@]4(O)C[C@@H](O)CC[C@]34C=O)[C@@]1(O)CC[C@@H]2C1=CC(=O)OC1 | CS242 fibroblast | 237

###

Let's look at some compounds and their measured pIC50.
- System: CS242 ERMS (screening) cells
- Experiment description: CS242 ERMS (screening) cell viability assay, CellTiter-Glo, 72 h
- Experimental parameters: Homo sapiens, 72 h, read-out: CS242 ERMS IC50, Table 4 analogs; 72 h; mean ± SD (n = 3)
pIC50: −log10 of the molar value.

Compound | Value operator | pIC50
COc1cc2c(cc1OC)-c1n[nH]c(=O)cc1C2 | = | 4.40
O=c1ccc(-c2ccc(Cl)cc2)n[nH]1 | = | 5.84
O=c1ccc(-c2ccc3c(c2)OCCCO3)n[nH]1 | = | 5.68
CCCCOc1ccc(-c2ccc(=O)[nH]n2)cc1 | = | 5.99
Nc1ccc(-c2ccc(=O)[nH]n2)cc1 | < | 4.03
O=C1CN2Cc3c(ccc(Cl)c3Cl)N=C2N1 [Anagrelide] | = | 7.24
COc1ccc(-c2ccc(=O)[nH]n2)cc1F | = | 5.90
CSc1ccc(-c2ccc(=O)[nH]n2)cc1 | = | 6.04
O=c1ccc(-c2ccc(F)c(F)c2)n[nH]1 | = | 5.40
O=c1ccc(-c2ccc3c(c2)OCCO3)n[nH]1 | = | 5.59
COc1ccc(-c2ccc(=O)[nH]n2)cc1 | = | 5.47
CCOc1ccc(-c2ccc(=O)[nH]n2)cc1 | = | 5.99
O=c1ccc(-c2ccc3c(c2)OCO3)n[nH]1 | = | 5.29
C[C@@H]1C(=O)NC2=Nc3cccc(Cl)c3CN21 | = | 6.27
COc1ccc(-c2ccc(=O)[nH]n2)c(F)c1 | = | 5.55
O=c1ccc(-c2ccccc2)n[nH]1 | = | 4.53
COc1cc(-c2ccc(=O)[nH]n2)ccc1OC(F)F | = | 6.58
O=c1ccc(-c2ccc(N3CCNCC3)cc2)n[nH]1 | < | 4.50
COc1ccc(-c2ccc(=O)[nH]n2)cc1OC | = | 5.67
COc1cccc(-c2ccc(=O)[nH]n2)c1 | = | 5.02
O=c1ccc(-c2ccc(F)cc2)n[nH]1 | = | 4.76
O=c1ccc(-c2ccc(N3CCCCC3)cc2)n[nH]1 | = | 5.92
COc1ccc(-c2ccc(=O)[nH]n2)cc1C | = | 6.22

###

Let's look at some molecules and their measured pIC50.
- Test system: HeLa cells
- Experiment description: HeLa cell viability assay, CellTiter-Glo, 72 h
- Type: cell-based, human
- Experimental parameters: Homo sapiens, HeLa, Table 4 analogs, mean ± SD (n = 3), read-out: HeLa IC50
pIC50: −log10 of the molar value.
Recorded metric: pIC50

Molecule smiles | Recorded metric | Value operator | Experimental result
CCCCOc1ccc(-c2ccc(=O)[nH]n2)cc1 | pIC50 | = | 7.25
O=c1ccc(-c2ccc3c(c2)OCCO3)n[nH]1 | pIC50 | = | 6.82
O=c1ccc(-c2ccc(Cl)cc2)n[nH]1 | pIC50 | = | 6.78
COc1ccc(-c2ccc(=O)[nH]n2)c(F)c1 | pIC50 | = | 6.54
CCOc1ccc(-c2ccc(=O)[nH]n2)cc1 | pIC50 | = | 7.37
COc1ccc(-c2ccc(=O)[nH]n2)cc1C | pIC50 | = | 7.96
Nc1ccc(-c2ccc(=O)[nH]n2)cc1 | pIC50 | < | 4.03
COc1cccc(-c2ccc(=O)[nH]n2)c1 | pIC50 | = | 6.06
O=c1ccc(-c2ccc(N3CCNCC3)cc2)n[nH]1 | pIC50 | < | 4.50
COc1ccc(-c2ccc(=O)[nH]n2)cc1F | pIC50 | = | 6.97
O=c1ccc(-c2ccc(F)c(F)c2)n[nH]1 | pIC50 | = | 6.42

###

- System: CS242 ERMS (screening) cells
- Experiment description: CS242 ERMS (screening) cell viability assay, CellTiter-Glo, 72 h
- Experimental parameters: Homo sapiens, 72 h, read-out: CS242 ERMS viability IC50, Table 3 PDE inhibitor panel; 72 h; top 18.8, 75 or 93.8 μM; mean ± SD (n = 3)
Recorded metric: log10 IC50 (log10 of the value in µM)

Compound | Target desc | log10 IC50
CCc1ccc2c(-c3cccc(Cl)c3)nc(=O)n(CC)c2n1 [YM 976] | CS242 ERMS (screening) cells | 1.78
O=C1CN2Cc3c(ccc(Cl)c3Cl)N=C2N1 [Anagrelide] | CS242 ERMS (screening) cells | -1.17
COc1ccc([C@H](Cc2ccncc2)c2ccccc2)cc1OC1CCCC1 [CDP 840] | CS242 ERMS (screening) cells | 1.44
COc1cc2c(cc1OC)-c1c/c(=N\c3c(C)cc(C)cc3C)n(C)c(=O)n1CC2 [Trequinsin] | CS242 ERMS (screening) cells | 1.56
COc1cc(-c2ccc(=O)[nH]n2)ccc1OC(F)F [Zardaverine] | CS242 ERMS (screening) cells | -0.39
COc1ccc(C(=O)Nc2c(Cl)cncc2Cl)cc1OC1CCCC1 [Piclamilast] | CS242 ERMS (screening) cells | 1.75

###

- Test system: CS242 ERMS (zardaverine resistant) cells
- Experiment description: CS242 ERMS (zardaverine resistant) cell viability assay, 72 h
- Assay type: cell-based
- Experimental parameters: Homo sapiens, Figure 5 subpopulations

Compound | IC50
O=C1CN2Cc3c(ccc(Cl)c3Cl)N=C2N1 [Anagrelide] | > 7.5 µM
COc1cc(-c2ccc(=O)[nH]n2)ccc1OC(F)F | > 7.5 µM

###

Let's look at some compounds and their measured pIC50.
- System: HeLa cells
- Experiment description: HeLa cell viability assay, CellTiter-Glo, 72 h
- Type: cell-based, human
- Experimental parameters: Homo sapiens, HeLa, Table 4 analogs, mean ± SD (n = 3), read-out: HeLa IC50
pIC50: −log10 of the molar value.
Recorded metric: pIC50

Molecule smiles | Experimental result
C[C@@H]1C(=O)NC2=Nc3cccc(Cl)c3CN21 | 7.21
COc1cc2c(cc1OC)-c1n[nH]c(=O)cc1C2 | 6.12
COc1ccc(-c2ccc(=O)[nH]n2)cc1OC | 7.00
O=c1ccc(-c2ccc(N3CCCCC3)cc2)n[nH]1 | 6.95
COc1ccc(-c2ccc(=O)[nH]n2)cc1 | 6.54

###

Let's look at some compounds and their measured pIC50.
- System: HeLa cells
- Experiment description: HeLa cell viability assay, CellTiter-Glo, 72 h
- Type: cell-based, human
- Experimental parameters: Homo sapiens, HeLa, Table 4 analogs, mean ± SD (n = 3), read-out: HeLa IC50
pIC50: −log10 of the molar value.
Recorded metric: pIC50

Compound | Recorded metric | Experimental result
O=C1CN2Cc3c(ccc(Cl)c3Cl)N=C2N1 [Anagrelide] | pIC50 | 8.22
O=c1ccc(-c2ccc3c(c2)OCCCO3)n[nH]1 [Compound 20] | pIC50 | 6.74
O=c1ccc(-c2ccc3c(c2)OCO3)n[nH]1 [Compound 18] | pIC50 | 6.49
CSc1ccc(-c2ccc(=O)[nH]n2)cc1 [Compound 21] | pIC50 | 7.25
COc1cc(-c2ccc(=O)[nH]n2)ccc1OC(F)F [Zardaverine] | pIC50 | 7.60
O=c1ccc(-c2ccc(F)cc2)n[nH]1 [Compound 8] | pIC50 | 5.90
O=c1ccc(-c2ccccc2)n[nH]1 [Compound 7] | pIC50 | 5.70
